Data origin: ChEMBL document CHEMBL1153946

# TARGET_ENTITY: Cannabinoid receptor 2 (Homo sapiens, UniProt P34972)
# Sequence (P34972 whole entry): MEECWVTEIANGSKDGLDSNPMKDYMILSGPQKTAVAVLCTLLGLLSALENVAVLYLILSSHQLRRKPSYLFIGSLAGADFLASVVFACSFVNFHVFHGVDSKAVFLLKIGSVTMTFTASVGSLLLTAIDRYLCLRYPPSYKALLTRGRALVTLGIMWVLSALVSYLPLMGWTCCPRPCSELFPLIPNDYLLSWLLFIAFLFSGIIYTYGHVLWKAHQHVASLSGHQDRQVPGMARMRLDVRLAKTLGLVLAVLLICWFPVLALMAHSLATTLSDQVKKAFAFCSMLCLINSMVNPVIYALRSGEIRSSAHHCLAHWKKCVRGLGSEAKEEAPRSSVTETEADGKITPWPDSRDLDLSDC
# ASSAY_TEXT: Displacement of [3H]WIN-55212-2 from human recombinant cannabinoid CB2 receptor expressed in CHOK1 cells by liquid scintillation spectrometry
# Assay type: cell-based, CHO-K1
QUANTITY: IC50 (nM)

>  <COMPOUND_STRUCTURE>
CC(C)(C)c1nnc(-c2nn(-c3ccc(Cl)cc3Cl)c(-c3ccc(Br)cc3)c2C(=O)Nc2ccccn2)o1

>  <UNIT_STRING>
nM

>  <IC50>
374

$$$$
>  <COMPOUND_STRUCTURE>
CC(C)(C)c1nnc(-c2nn(-c3ccc(Cl)cc3Cl)c(-c3ccc(Cl)cc3)c2C(=O)Nc2ccccn2)o1

>  <UNIT_STRING>
nM

>  <IC50>
636

$$$$

P. CC(C)(C)c1nnc(-c2nn(-c3ccc(Cl)cc3Cl)c(-c3ccc(Cl)cc3)c2C(=O)Nc2ccccc2)o1
Q. CC(C)(C)c1nnc(-c2nn(-c3ccc(Cl)cc3Cl)c(-c3ccc(Br)cc3)c2C(=O)Nc2ccccc2)o1
Which one would you say has the larger IC50 value: P , or Q ? Select an item and report its label. P
(P: 738 nM, Q: 386 nM)
